studySystem: T1, CH505.TF mutant gp120 M20 (HIV-1)
T1 construct: domain: gp120
protocolSummary: ELISA
Overview of reported LogAUC across a group of binders:
experimentalEndpoint: LogAUC

CH241 (antibody, V domains shown) VH: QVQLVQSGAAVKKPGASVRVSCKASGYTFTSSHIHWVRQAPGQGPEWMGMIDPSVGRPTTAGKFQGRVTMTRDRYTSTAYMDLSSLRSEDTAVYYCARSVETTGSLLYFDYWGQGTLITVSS VL: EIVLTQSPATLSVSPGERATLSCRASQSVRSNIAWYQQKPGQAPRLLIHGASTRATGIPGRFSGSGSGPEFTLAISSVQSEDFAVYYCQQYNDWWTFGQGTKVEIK | 2.15
CH235.13 (antibody, V domains shown) VH: QVQLVQSGGGVKRPGSTTTISCVASGYSFNDYYIHWVRQAPGQGLEVLGFIDPSNGRTNYAGAFGDRFSMYRDKSMETLYMDLRNLRSDDTAMYYCVRNVGTAGSLLHYDHWGTGSKIIVSS VL: EIVLTQSPATLSASPGERVTLTCRASRGVRNNVAWYQHNVGQSPRLLIYDASTRAPGIPARFSGSASGTEFTLAISSIQSEDFTLYYCHQYNNWWTFGQGTRVDIN | 0
CH555 (antibody, V domains shown, also called CH235.10) VH: QVQLVQSGATVKKPRASVTLSCRTSGYNFIDYFIHWVRRAPGQRLEVMGYIDPSRGRPDYAPNFRDRVSLYRDTSMSIVYLDLRDLTPDDTAIYYCVRSEGTEGTVLHYDHWGPGTRVTVSP VL: EIVLTQSPDTLSASPGERVTLSCRASQSVGTKVAWYRHVRGQPPRLLIYGASTRAAGIPARFSGGGSGTNFTLIINNFQSEDFAEYLCQQYKSWWTFGQGTKVDNK | 0
CH491 (antibody, V domains shown, also called CH235.7; DH491) VH: QVQLVQSGAAVKRPGASVTISCRASGYTFTTYYIHWVRQAPGQGLELMGWINPRGGRTDYSYRFEDRVSMYRDTSMSIVYMDLRNLKSADTAVYYCVRNVGTSGSLLHYDFWGQGSLVTVSS VL: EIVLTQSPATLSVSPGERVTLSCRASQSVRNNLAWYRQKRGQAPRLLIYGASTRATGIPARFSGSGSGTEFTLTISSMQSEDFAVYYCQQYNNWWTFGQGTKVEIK | 0
